Value source: PubChem BioAssay (NCI)

# Test system: UACC-62 melanoma
# assay: NCI-60 one-dose screen, 48 h (100 = growth as untreated, 0 = no growth, -100 = all killed)
# condition-notes: 10 µM unless noted
Compounds without any hit were thinned out: in the full panel of roughly 83,000, 20% have a hit.
Mark each entry Criterion met if its growth sits below 90%, and Criterion not met for all others.

INSERT INTO assay_data (compound, label_value) VALUES
  ('O=C(CCCC(=O)Nc1ccc(-n2nnc3cc(Cl)c(Cl)cc32)cc1)Nc1ccc(-n2nnc3cc(Cl)c(Cl)cc32)cc1', 'Criterion met'),
  ('NC(N)=NC(N)=Nc1cc2ccccc2c2ccccc12', 'Criterion met'),
  ('Cc1nnc(/N=C2\NC(=O)/C(=C/c3ccsc3)S2)s1', 'Criterion not met'),
  ('C=C1C(=O)O[C@H]2[C@H]1CC/C(COC(=O)CCCCCCCCC(=O)OC/C1=C/CC[C@@]3(C)O[C@H]3[C@H]3OC(=O)C(=C)[C@@H]3CC1)=C\CC[C@@]1(C)O[C@@H]21', 'Criterion met'),
  ('COc1cc([C@H](C)c2ccc3ccccc3c2)cc(OC)c1OC', 'Criterion met'),
  ('COc1cc(C2CC(c3ccc(Nc4nc(NCCO)nc(NCCO)n4)cc3)=NN2c2cc(Cl)cc(Cl)c2)cc(OC)c1OC (centres undefined)', 'Criterion met'),
  ('COc1ccc(NC(=O)c2sc3nc(C)c(C(C)=O)cc3c2N)cc1', 'Criterion not met');
